Recorded values, source patent US20100120763A1.

- assayedSystem: PDE10A (Homo sapiens, UniProt Q9Y233)
- Construct: made in house; host or cells: SF21 insect cells (baculovirus)
- Sequence (Q9Y233 1-779 isoform Q9Y233-1): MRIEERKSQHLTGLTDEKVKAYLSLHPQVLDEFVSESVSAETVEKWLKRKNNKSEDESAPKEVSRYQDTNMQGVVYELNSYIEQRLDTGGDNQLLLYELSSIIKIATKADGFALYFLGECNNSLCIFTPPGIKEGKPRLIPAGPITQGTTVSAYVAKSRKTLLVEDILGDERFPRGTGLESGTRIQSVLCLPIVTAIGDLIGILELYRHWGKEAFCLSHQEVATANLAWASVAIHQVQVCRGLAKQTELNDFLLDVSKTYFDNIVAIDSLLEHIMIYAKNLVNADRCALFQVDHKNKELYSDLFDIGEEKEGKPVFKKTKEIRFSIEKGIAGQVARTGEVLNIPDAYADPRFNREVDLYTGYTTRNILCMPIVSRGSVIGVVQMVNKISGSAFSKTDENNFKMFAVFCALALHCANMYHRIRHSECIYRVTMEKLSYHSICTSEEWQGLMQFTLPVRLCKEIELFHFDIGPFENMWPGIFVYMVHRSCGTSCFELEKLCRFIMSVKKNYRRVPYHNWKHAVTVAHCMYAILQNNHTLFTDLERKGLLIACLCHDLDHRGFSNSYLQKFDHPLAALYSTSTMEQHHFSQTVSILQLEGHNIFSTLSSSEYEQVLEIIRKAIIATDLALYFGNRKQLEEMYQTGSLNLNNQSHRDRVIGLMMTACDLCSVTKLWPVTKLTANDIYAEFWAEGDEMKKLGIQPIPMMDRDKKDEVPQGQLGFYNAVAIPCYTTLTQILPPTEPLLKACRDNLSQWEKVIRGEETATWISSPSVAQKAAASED
- methodSummary: Inhibition of recombinant PDE10A (baculovirus/SF21 system), [3H]-cAMP SPA
- Format: biochemical
- conditionSummary: recombinant PDE10A1, cytosolic; 0.1 μM [3H]-cAMP, 37° C., 30 minutes; read-out: PDE10A IC50
Reported pIC50 is given for each of the following compounds.
Answer as the number alone; pIC50 is minus log10 of concentration in mol/L.

Some compounds with known pIC50 results, for comparison:
COc1cccc(-c2nc(C)c3nnc4c(F)cc(OC)cc4n23)c1 :: 7.77
COc1cc(F)cc2c1nnc1c(C)nc(-c3cc(F)ccc3C)n12 :: 8.33
Cc1nc(-c2cc(Cl)ccc2Cl)n2c1nnc1c(Cl)cc(C(F)(F)F)cc12 :: 8.01
COc1cc(F)c2nnc3c(C)nc(-c4cc(Cl)ccc4OC)n3c2c1 :: 7.19
COc1cc(F)cc2c1nnc1c(C)nc(-c3ccc(F)nc3C)n12 :: 7.27
COc1cccc2c1nnc1c(C)nc(-c3ccccc3Cl)n12 :: 8.62
CCOc1ccc(Cl)c(-c2nc(C)c3nnc4c(F)cc(OC)cc4n23)c1 :: 7.51
COc1cc(F)c2nnc3c(C)nc(-c4cc(F)ccc4Cl)n3c2c1 :: 8.15

Enquiry: So what's the measured pIC50 for this one? "COc1ccc(F)c(-c2nc(C)c3nnc4c(F)cc(OC)cc4n23)c1"
Return: 8.02

Enquiry: Here is the next compound: "COc1ccc(Cl)c(-c2nc(C)c3nnc4ccc(F)cc4n23)c1"
Return: 6.74

###

- assayedSystem: PDE2A (Homo sapiens)
- Construct: made in house; host or cells: SF21 insect cells (baculovirus)
- Sequence (O00408 whole entry): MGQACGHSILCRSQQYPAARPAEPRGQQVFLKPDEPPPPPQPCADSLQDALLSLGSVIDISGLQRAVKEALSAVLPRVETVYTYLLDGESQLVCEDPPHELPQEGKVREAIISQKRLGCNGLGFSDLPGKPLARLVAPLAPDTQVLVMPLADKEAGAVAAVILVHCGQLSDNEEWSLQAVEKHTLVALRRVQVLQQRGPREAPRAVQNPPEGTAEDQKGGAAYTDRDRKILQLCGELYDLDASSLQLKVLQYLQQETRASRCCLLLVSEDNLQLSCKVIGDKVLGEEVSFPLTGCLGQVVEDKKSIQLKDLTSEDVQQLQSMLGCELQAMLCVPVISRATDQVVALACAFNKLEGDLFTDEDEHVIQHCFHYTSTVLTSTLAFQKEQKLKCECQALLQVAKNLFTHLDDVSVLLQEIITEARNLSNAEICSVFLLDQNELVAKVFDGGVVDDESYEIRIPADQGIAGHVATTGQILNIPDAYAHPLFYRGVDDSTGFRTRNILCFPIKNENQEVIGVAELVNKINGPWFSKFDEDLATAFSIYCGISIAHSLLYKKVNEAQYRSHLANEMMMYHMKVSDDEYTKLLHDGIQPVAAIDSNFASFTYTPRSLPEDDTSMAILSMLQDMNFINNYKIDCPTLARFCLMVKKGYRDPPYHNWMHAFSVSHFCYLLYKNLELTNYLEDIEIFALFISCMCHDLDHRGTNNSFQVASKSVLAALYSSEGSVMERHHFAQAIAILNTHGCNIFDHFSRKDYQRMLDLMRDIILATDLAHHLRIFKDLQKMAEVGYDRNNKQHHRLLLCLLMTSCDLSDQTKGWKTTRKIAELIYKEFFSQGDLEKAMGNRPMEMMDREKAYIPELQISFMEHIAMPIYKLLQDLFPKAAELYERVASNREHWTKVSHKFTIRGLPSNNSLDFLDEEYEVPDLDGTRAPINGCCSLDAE
- methodSummary: Inhibition of recombinant PDE2A (expressed in baculovirus/SF21-cells), [3H]-cAMP SPA
- Assay type: biochemical
IC50 strictly under 100 nM means 1; at 100 nM or over means -1.

See these solved cases before continuing.
CCCOc1ccc(F)c(-c2nc(C)c3nnc4ccc(F)cc4n23)c1 :: 1
COc1cc(OCc2ccccc2)cc2c1nnc1c(C)nc(-c3ccncc3C)n12 :: 1
COc1cc(F)c2nnc3c(C)nc(-c4ccc(C)cc4F)n3c2c1 :: -1

Enquiry: Would you kindly verify if IC50 of "COc1cc(F)c2nnc3c(C)nc(-c4cc(C)ccc4Cl)n3c2c1" is strictly less than 100 nM?
Return: 1

Enquiry: Here is the next molecule: "COc1cc(F)cc2c1nnc1c(C)nc(-c3cccc(F)c3C)n12"
Return: -1

###

- assayedSystem: PDE10A (Homo sapiens, UniProt Q9Y233)
- Construct: made in house; host or cells: SF21 insect cells (baculovirus)
- methodSummary: Inhibition of recombinant PDE10A (baculovirus/SF21 system), [3H]-cAMP SPA
- Format: biochemical
- conditionSummary: recombinant PDE10A1, cytosolic; 0.1 μM [3H]-cAMP, 37° C., 30 minutes; read-out: PDE10A IC50
- Method: Inhibition of Recombinant PDE10A (Baculovirus/SF21 System) The gene was than inserted into a baculovirus vector, ligated with the baculovirus DNA. The enzyme-protein was expressed in SF21-cells. […] PDE activity was determined in a one step procedure in microtiter plates. […] Non-specific enzyme activity was determined without the enzyme. […] One hour later the mixture was measured in a liquid scintillation counter for microtiter plates (Microbeta Trilux). […]
attributeMeasured: log10(IC50) (log10 of the value in nM)
Log10 applied to IC50; unit prior to transform: nM.

Some molecules with known log10(IC50) results, for comparison:
COc1cc(F)c2nnc3c(C)nc(-c4c(C)nn(C)c4C)n3c2c1 :: 1.74
COc1ccc(Cl)cc1-c1nc(C)c2nnc3c(OC)cc(C(F)(F)F)cc3n12 :: 1.03
COc1cc(N2CCOCC2)cc2c1nnc1c(C)nc(-c3ccncc3C)n12 :: 0.60

Enquiry: So what's the measured log10(IC50) for this one? "COc1cc(F)c2nnc3c(C)nc(-c4cc(C)ccc4Cl)n3c2c1"
Return: 0.89

Enquiry: Here is the next molecule: "COc1cc(F)c2nnc3c(C)nc(-c4cnc(F)c(C)c4)n3c2c1"
Return: 2.72

Enquiry: Here is the next molecule: "COc1cc(F)cc2c1nnc1c(C)nc(-c3ccc(F)cc3Cl)n12"
Return: 0.48

Enquiry: Here is the next molecule: "COc1cc(F)c2nnc3c(C)nc(-c4ccc(F)cc4Cl)n3c2c1"
Return: 1.10

Enquiry: Here is the next molecule: "COc1ccccc1-c1nc(C)c2nnc3c(OC)cc(F)cc3n12"
Return: 0.81

###

attributeMeasured: melting point

Some compounds with known melting point results, for comparison:
Cc1nc(-c2cc(Cl)ccc2Cl)n2c1nnc1ccc(Cl)cc12 [Example 37] :: 188 to 190 °C
COc1ccc(Cl)c(-c2nc(C)c3nnc4cc(F)ccc4n23)c1 [Example 29] :: 158 to 161.5 °C
COc1ccccc1-c1nc(C)c2nnc3ccc(Cl)cc3n12 [Example 39] :: 179 to 182 °C
COc1cc2nnc3c(C)nc(CC(C)C)n3c2cc1OC [Example 53] :: 196 to 199 °C

Enquiry: So what's the measured melting point for this one? Cc1nc(-c2cc(Cl)ccc2Cl)n2c1nnc1ccc(F)cc12 [Example 8]
Return: 146 to 149 °C

Enquiry: Here is the next compound: Cc1nc(-c2cccc(Cl)c2Cl)n2c1nnc1ccc(-c3cccc(Cl)c3Cl)cc12 [Example 173]
Return: 207 to 210 °C

Enquiry: Here is the next compound: Cc1nc(-c2ccccc2Cl)n2c1nnc1ccc(N3CCN(C)CC3)cc12 [Example 186]
Return: 230 °C

Enquiry: Here is the next compound: Cc1nc(C2CCCCC2)n2c1nnc1ccc(F)cc12 [Example 4]
Return: 246 to 250 °C (dec.)

Enquiry: Here is the next compound: Cc1nc(-c2ccccc2Cl)n2c1nnc1ccc(-c3ccccc3Cl)cc12 [Example 172]
Return: 172 to 175 °C

Enquiry: Here is the next compound: COc1ccc(Cl)c(-c2nc(C)c3nnc4ccc(F)cc4n23)c1 [Example 18]
Return: 190 to 192 °C

Enquiry: Here is the next compound: "CCOc1ccc(F)c(-c2ccc3nnc4c(C)nc(-c5cc(OCC)ccc5F)n4c3c2)c1"
Return: 152 to 155 °C

###

Reported IC50 is given for each of the following molecules.
- assayedSystem: PDE10A (Homo sapiens, UniProt Q9Y233)
- Construct: made in house; host or cells: SF21 insect cells (baculovirus)
- methodSummary: Inhibition of recombinant PDE10A (baculovirus/SF21 system), [3H]-cAMP SPA
- Assay type: biochemical
- conditionSummary: recombinant PDE10A1, cytosolic; 0.1 μM [3H]-cAMP, 37° C., 30 minutes; read-out: PDE10A IC50
Could you give the number and then its unit, please?

Cc1nc(-c2cc(OC(C)C)ccc2F)n2c1nnc1ccc(F)cc12 :: 2290 nM

Enquiry: So what's the measured IC50 for this one? "COc1cc(F)cc2c1nnc1c(C)nc(-c3ccncc3)n12"
Return: 61.6 nM

Enquiry: Here is the next molecule: "COc1cc(F)cc2c1nnc1c(C)nc(-c3cc(C(N)=O)ccc3F)n12"
Return: 6.31 nM

Enquiry: Here is the next molecule: "Cc1nc(-c2ccccc2C(N)=O)n2c1nnc1ccc(Cl)cc12"
Return: 3120 nM

Enquiry: Here is the next molecule: "COc1cncc(-c2nc(C)c3nnc4c(F)cc(OC)cc4n23)c1"
Return: 45.5 nM

Enquiry: Here is the next molecule: "Cc1ncccc1-c1nc(C)c2nnc3ccc(Cl)cc3n12"
Return: 207 nM

###

- assayedSystem: PDE10A (Homo sapiens)
- Construct: made in house; host or cells: SF21 insect cells (baculovirus)
- methodSummary: Inhibition of recombinant PDE10A (baculovirus/SF21 system), [3H]-cAMP SPA
- Type: biochemical
- conditionSummary: recombinant PDE10A1, cytosolic; 0.1 μM [3H]-cAMP, 37° C., 30 minutes; read-out: PDE10A IC50
Reported IC50 is given for each of the following compounds.
Return type: number; implicit unit nM.

Some compounds with known IC50 results, for comparison:
Cc1nc(-c2ccccc2Cl)n2c1nnc1ccc(N3CCOCC3)cc12 :: 9.77
Cc1nc(-c2cc(Cl)ccc2Cl)n2c1nnc1ccc(N3CCCCC3)cc12 :: 49.5
CCCOc1ccc(F)c(-c2nc(C)c3nnc4ccc(F)cc4n23)c1 :: 1540
COc1cc(N2CCOCC2)cc2c1nnc1c(C)nc(-c3cccnc3C)n12 :: 1.92
CCCc1nc(C)c2nnc3cc(OC)ccc3n12 :: 401

Enquiry: So what's the measured IC50 for this one? "COc1cc(F)c2nnc3c(C)nc(-c4cc(C(F)(F)F)ccc4Cl)n3c2c1"
Return: 199

Enquiry: Here is the next compound: "Cc1ncccc1-c1nc(C)c2nnc3ccc(F)cc3n12"
Return: 780

Enquiry: Here is the next compound: "COc1cc(F)c2nnc3c(C)nc(-c4sccc4C)n3c2c1"
Return: 9.43

Enquiry: Here is the next compound: "COc1cc(OC)c2nnc3c(C)nc(-c4c(C)nn(C)c4C)n3c2c1"
Return: 1.85
